# Tested on: HT29 colon
# ASSAY_PROTOCOL: NCI tumour cell line growth inhibition, 48 h
MEASURED_ENDPOINT: TGI (µM)

1. O=C1C=C(Nc2cccnc2)c2ccccc2C1=O: 33.7
2. O=C(Nc1ccc(-n2ccc3c(NC(=O)c4ccccc4)ncnc32)cc1)c1ccc(Cl)c(C(F)(F)F)c1: 6.16
3. COC(=O)CCC1=C(C)C(C)=N/C1=C\c1[nH]c(-c2ccc[nH]2)cc1OC: 3.85
4. CC12C=C[C@]3(CC[C@@H]4[C@@](C)(CO)CCC[C@]4(C)C3CC1)C2 (some centres not stated): 32.2
5. [O-][n+]1c2cc(CBr)c(CBr)cc2[n+]([O-])c2c(O)cccc21: 3.88
6. COC(=O)[C@]1(C)CCC[C@]2(C)[C@H]3CC[C@]4(C(C)C)OO[C@@H](O4)[C@]34O[C@@H]4C[C@H]21: 3.91
7. O=c1oc2ccccc2c(O)c1/C=N\c1nc(-c2ccc(O)c(O)c2)cs1: 23.6
8. CN(CCCN(C)Cc1ccc(Cl)c(Cl)c1)CCN1CCCC1: 32.2
9. NC(=O)c1ccc(NCC2=CC(=O)C=CC2=O)cc1: 47.7
10. C/C(=N\NC(=S)N1CCN(c2ccccn2)CC1)c1cccc(C)n1: 14.5
